System: Ba/F3 cells expressing EGFR mutations
assay.protocol: Cell proliferation assay, Ba/F3 cells expressing EGFR mutations (CellTiter-Glo, 72 hours)
Assay type: cell-based
condition.description: Mus musculus, BaF3, 72 h, BaF3 cells, EGFR L858R-T790M, CellTiter-Glo, read-out: L858R-T790M/BaF3 GI50
Description: Biological Example 2: Cell Proliferation Assays Ba/F3 cells expressing EGFR mutations were seeded in 384-well plates at 5000 cells/well in RPMI1640 medium containing 1000 FBS. […] The assay plates were further incubated for 72 hours and the number of viable cells (G3) was measured. The percentage of proliferation was calculated as: […]=100×(G3 value of sample well−G0 value)/(G3 value of DMSO control−G0 value). […]
parameter: GI50 (nM)

C[C@@H]1CCCOc2c(cnn2C)-c2cc(cn(C)c2=O)C(=O)Nc2nc3ccc(N(C)CCN(C)C)cc3n2C1; 23
C[C@@H]1CCCOc2c(cnn2C)-c2cc(cn(C)c2=O)C(=O)Nc2nc3ccc(N4CCC5(CC4)CCN5C)cc3n2C1; 13.1

[1] C[C@@H]1CCCOc2c(cnn2C)-c2cc(cn(C)c2=O)C(=O)Nc2nc3ccc(N4CC(N5CCOCC5)C4)cc3n2C1
[2] C[C@@H]1CCCOc2c(cnn2C)-c2cc(cn(C)c2=O)C(=O)Nc2nc3ccc(N4CC5(CCN(C)C5)C4)cc3n2C1
[3] Cn1ncc2c1OCCN(C1COC1)CCn1c(nc3ccccc31)NC(=O)c1cc-2c(=O)n(C)c1
Ask: Reorder the items by GI50, least to greatest. # output: labels, in the requested order
Result: 2, 1, 3

###

target.or.test.system: EGFR (d746-750 C797S) (Homo sapiens, UniProt P00533, C797S/DEL746-750)
Construct: purchased signalchem
Sequence (P00533 with tags, fused parts or gaps DEL746-750/C797S limits assumed): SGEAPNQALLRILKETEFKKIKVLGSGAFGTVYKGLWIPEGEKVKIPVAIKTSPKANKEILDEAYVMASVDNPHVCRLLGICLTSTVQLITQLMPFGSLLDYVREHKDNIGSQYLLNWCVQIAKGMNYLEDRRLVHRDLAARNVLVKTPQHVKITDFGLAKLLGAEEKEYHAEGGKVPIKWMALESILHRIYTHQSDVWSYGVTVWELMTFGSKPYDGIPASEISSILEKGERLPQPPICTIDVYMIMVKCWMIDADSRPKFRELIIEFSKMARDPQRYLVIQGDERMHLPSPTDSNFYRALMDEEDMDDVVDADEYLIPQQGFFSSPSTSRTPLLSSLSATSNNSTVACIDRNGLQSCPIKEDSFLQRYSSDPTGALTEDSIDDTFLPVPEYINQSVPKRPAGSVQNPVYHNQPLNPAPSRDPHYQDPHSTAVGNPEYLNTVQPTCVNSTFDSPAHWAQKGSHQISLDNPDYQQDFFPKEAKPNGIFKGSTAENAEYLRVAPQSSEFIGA
assay.protocol: Inhibition of EGFR (d746-750 C797S) biochemical enzymatic activity (HTRF)
condition.description: EGFR (d746-750 C797S), 1 mM ATP, 1 h at room temperature, read-out: IC50 @Del19-C797S
parameter: IC50 (nM)

Below, 5 molecules whose answers are already recorded.
CCN1CCN(c2ccc3nc4n(c3c2)C23CCC(CN(CCOc5c(cnn5C)-c5cc(cc(C)n5)C(=O)N4)C2)C3)CC1 (single isomer, unassigned) [Example B56A]; 2390
Cc1cc2cc(n1)-c1cnn(C)c1OCCN1CC3CCC(C3)(C1)n1c(nc3ccc(N4CCC5(CC4)CCN5C)cc31)NC2=O (single isomer, unassigned) [Example B54A]; 4720
Cc1cc2cc(n1)-c1cnn(C)c1OCCN1CC3CCC(CC3)(C1)n1c(nc3ccc(N4CCC5(CCN(C)CC5)C4)cc31)NC2=O [Example B38]; 26
Cc1cc2cc(n1)-c1cnn(C)c1OCCN1CC3CCC(C3)(C1)n1c(nc3ccc(N4CCC(N5CCOCC5)C4)cc31)NC2=O (single isomer, unassigned) [Example B44B1]; 12
Cc1cc2cc(n1)-c1cnn(C)c1OCCN1CC3CCC(C3)(C1)n1c(nc3ccc(N4CCC(N5CCOCC5)C4)cc31)NC2=O (single isomer, unassigned) [Example B44B]; 8.1

[P] Cc1cc2cc(n1)-c1cnn(C)c1OCCN1CC3CCC(C3)(C1)n1c(nc3ccc(N4CC[C@@H](N(C)C)C4)cc31)NC2=O (single isomer, unassigned) [Example B42B]
[Q] Cc1cc2cc(n1)-c1cnn(C)c1OCCCCCn1c(nc3ccc4c(c31)CCNC4)NC2=O
[R] Cc1cc2cc(n1)-c1cnn(C)c1OCCN1CC3CCC(C3)(C1)n1c(nc3ccc(N4CCN(C5CC5)CC4)cc31)NC2=O (single isomer, unassigned) [Example B55B]
Ask: Given 3 molecules, produce a descending ranking by IC50. List the labels according to the requested ordering.
Result: Q, P, R

[1] Cc1cc2cc(n1)-c1cnn(C)c1OCCN1CC3CCC(C3)(C1)n1c(nc3ccc(N4CCN(C5COC5)CC4)cc31)NC2=O (single isomer, unassigned) [Example B58B]
[2] Cc1cc2cc(n1)-c1cnn(C)c1OCCCCCn1c(nc3ccc4c(c31)CCN(C1COC1)C4)NC2=O
Ask: Of the two listed items, 1 and 2 , which carries the larger IC50 figure? Returns: label corresponding to the selected item.
Result: 2
(2: 2110 nM, 1: 4.2 nM)
